Quick reference: CC50 at 3 h of the listed items.
experiment: Cytotoxicity assay; type: cell-based; conditions: human, 5% suspension of human blood erythrocytes
metricName: CC50 at 3 h

# structure, metricName, measured
data = [
    ("CCCN1CN(CC(=O)O)CSC1=S", "CC50 at 3 h", "402 µM"),
    ("CCCCN1CN(CC(=O)O)CSC1=S", "CC50 at 3 h", "376 µM"),
    ("Cc1cc(C)c(N2CSC(=S)N(CCN(CCN3CN(c4c(C)cc(C)cc4C)CSC3=S)CCN3CN(c4c(C)cc(C)cc4C)CSC3=S)C2)c(C)c1", "CC50 at 3 h", "89.7 µM"),
]
